target: HIV-1 protease (Human immunodeficiency virus type 1 group M subtype B); experiment: biochemical; conditions: read-out: HIV-1 FITC KI
Below, each entry is listed alongside its reported Ki.

| compound | target | Ki [nM] |
| --- | --- | --- |
| CC(C)(C)OC(=O)NCC(=O)Nc1cccc(C(c2c(O)c3c(oc2=O)CCCCCC3)C2CC2)c1 (stereo not shown) [Example 200] | HIV-1 protease (Human immunodeficiency virus type 1 group M subtype B) | 2.9 |
| O=c1oc2c(c(O)c1C(c1cccc(S(=O)(=O)Nc3ccccc3)c1)C1CC1)CCCCCC2 (stereo not shown) [Example 400] | HIV-1 protease (Human immunodeficiency virus type 1 group M subtype B) | 35.8 |
| CCCC(c1cccc(NS(=O)(=O)c2ccc(C#N)cc2)c1)c1c(O)c2c(oc1=O)CCCCCC2 (stereo not shown) [Example 378] | HIV-1 protease (Human immunodeficiency virus type 1 group M subtype B) | 1.06 |
| CCCC(c1cccc(NS(=O)(=O)c2cn(C)cn2)c1)c1c(O)c2c(oc1=O)CCCCCC2 (stereo not shown) [Example 431] | HIV-1 protease (Human immunodeficiency virus type 1 group M subtype B) | 0.89 |
| CCCCCCCCS(=O)(=O)Nc1cccc(C(c2c(O)c3c(oc2=O)CCCCCC3)C2CC2)c1 (stereo not shown) [Example 343] | HIV-1 protease (Human immunodeficiency virus type 1 group M subtype B) | 6 |
| O=c1oc2c(c(O)c1C(c1ccccc1)C1CC1)CCCCCC2CC1CC1 (stereo not shown) [Example 121] | HIV-1 protease (Human immunodeficiency virus type 1 group M subtype B) | 24 |
| O=c1oc2c(c(O)c1[C@@H](c1cccc(NS(=O)(=O)c3cccc4cccnc34)c1)C1CC1)CCCCCC2 [Example 260] | HIV-1 protease (Human immunodeficiency virus type 1 group M subtype B) | 0.93 |
| N#Cc1ccc(S(=O)(=O)Nc2cccc([C@@H](c3c(O)c4c(oc3=O)CCCCCC4)C3CC3)c2)cc1 [Example 255] | HIV-1 protease (Human immunodeficiency virus type 1 group M subtype B) | 0.62 |
| O=c1oc2c(c(O)c1C1(c3ccccc3)CCC1)CCCCCC2 [Example 483] | HIV-1 protease (Human immunodeficiency virus type 1 group M subtype B) | 33 |
| CC1(C)C2CCC1(CS(=O)(=O)Nc1cccc(C(c3c(O)c4c(oc3=O)CCCCCC4)C3CC3)c1)C(=O)C2 (stereo not shown) [Example 333] | HIV-1 protease (Human immunodeficiency virus type 1 group M subtype B) | 104 |

----------
molecular target: HIV-1 protease (Human immunodeficiency virus type 1 group M subtype B, UniProt P04585); assay: biochemical; settings: dose 30.000 uM; read-out: HIV-1 Protease % Inhib
Below, each entry is listed alongside its reported inhibition at 30 µM.

| compound | inhibition at 30 µM, % |
| --- | --- |
| O=c1oc2c(c(O)c1C(c1cccc(NS(=O)(=O)c3c(Cl)cccc3Cl)c1)C1CC1)CCCCCC2 (centres unmarked) [Example 295] | 100 |
| O=c1oc2c(c(O)c1C(c1ccccc1)C1CC1)CCCCCC2CO (centres unmarked) [Example 173] | 97.2 |
| COCCOCCOCCC1CCCCc2c1oc(=O)c(C(c1ccccc1)C1CC1)c2O (centres unmarked) [Example 181] | 79.3 |
| CCCCOc1ccc(S(=O)(=O)Nc2cccc(C(c3c(O)c4c(oc3=O)CCCCCC4)C3CC3)c2)cc1 (centres unmarked) [Example 282] | 96.3 |
| O=c1oc2c(c(O)c1C(Cc1ccccc1)Cc1ccccc1)CCCCC2 [Example 482] | 92.6 |
| COCOCc1ccc(C(c2c(O)c3c(oc2=O)CCCCCC3)C2CC2)o1 (centres unmarked) [Example 386] | 96.3 |
| O=c1oc2c(c(O)c1C(c1ccccc1)C1CC1)CCCCC2CC1CCCOC1 (centres unmarked) [Example 187] | 90.2 |
| Cc1cc(C)c(S(=O)(=O)Nc2cccc(C(c3c(O)c4c(oc3=O)CCCCCC4)C3CC3)c2)c(C)c1 (centres unmarked) [Example 277] | 94.1 |
